Source: patent US9512175B2

target: cyclophilin A (Homo sapiens, UniProt P62937); assay: Cyclophilin A TR-FRET competitive binding assay; conditions: IC50 ranges; competition with CsA-Cy5 for His-tagged CypA, two-hour incubation; read-out: TR-FRET
Sequence (P62937 whole entry, species assumed): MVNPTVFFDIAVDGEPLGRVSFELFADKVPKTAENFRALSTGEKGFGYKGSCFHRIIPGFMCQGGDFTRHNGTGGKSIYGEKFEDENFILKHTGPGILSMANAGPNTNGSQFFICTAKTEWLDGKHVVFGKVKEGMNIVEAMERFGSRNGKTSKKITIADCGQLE
measurement_kind: IC50

* CC(C)[C@@H]1NC(=O)[C@H](C)[C@H](O)CCCCc2cccc(c2)[C@@H](C)NC(=O)[C@@H]2CCCN(N2)C(=O)[C@H](C)NC1=O | < 100 nM
* C[C@@H]1NC(=O)[C@H](CCn2ccnn2)NC(=O)C(C)(C)/C=C/c2cc3cc(ccc3cn2)[C@@H](C)OC(=O)[C@@H]2CCCN(N2)C1=O | 101 to 1000 nM
* CCCC(=O)O[C@@H](C)[C@H]1/C=C/c2ccc3ccc(nc3c2)[C@@H](C)OC(=O)[C@@H]2CCCN(N2)C(=O)[C@H](C)NC(=O)[C@H](C(C)C)NC1=O | < 100 nM
* CC(C)[C@@H]1NC(=O)[C@]2(CCc3ccc4ccc(nc4c3)[C@@H](C)OC(=O)[C@@H]3CCCN(N3)C(=O)[C@H](C)NC1=O)CC[C@H](O)CC2 | < 100 nM
* CC(C)[C@@H]1NC(=O)C2(/C=C/c3ccc4ccc(nc4c3)[C@@H](C)OC(=O)[C@@H]3CCCN(N3)C(=O)[C@H](C)NC1=O)CCC(F)(F)CC2 | < 100 nM
* CC[C@H](C)[C@@H]1NC(=O)C(C)(C)/C=C/c2ccc3ccc(nc3c2)[C@@H](C)OC(=O)[C@@H]2CCCN(N2)C(=O)[C@H](C)NC1=O | < 100 nM
* C[C@@H]1NC(=O)[C@H](Cc2cccnc2)NC(=O)C(C)(C)/C=C/c2cc3cc(ccc3cn2)[C@@H](C)OC(=O)[C@@H]2CCCN(N2)C1=O | 101 to 1000 nM
* CC(C)[C@@H]1NC(=O)C2(/C=C/c3cc4cc(ccc4cn3)[C@@H](C)OC(=O)[C@@H]3CCCN(N3)C(=O)[C@H](C)NC1=O)CC2 | < 100 nM
* CC(C)[C@@H]1NC(=O)[C@@](C)(CO)/C=C/c2ccc3ccc(cc3c2)[C@@H](C)OC(=O)[C@@H]2CCCN(N2)C(=O)[C@H](C)NC1=O | < 100 nM
* C[C@@H]1NC(=O)[C@H](CCn2cc(CO)nn2)NC(=O)C(C)(C)/C=C/c2cc3cc(ccc3cn2)[C@@H](C)OC(=O)[C@@H]2CCCN(N2)C1=O | 101 to 1000 nM
* CCN1CCC2(/C=C/c3ccc4ccc(nc4c3)[C@@H](C)OC(=O)[C@@H]3CCCN(N3)C(=O)[C@H](C)NC(=O)[C@H](C(C)C)NC2=O)CC1 | < 100 nM
* Cc1cc2ccc(/C=C/C(C)(C)C(=O)N[C@H](C(=O)N[C@@H](C)C(=O)N3CCC[C@@H](C(=O)O)N3)C(C)C)cc2nc1[C@@H](C)O | 1000 to 10000 nM
* C[C@@H]1NC(=O)[C@H]([C@@H](C)O)NC(=O)C/C=C/c2cc3cc(ccc3cn2)[C@@H](C)OC(=O)[C@@H]2CCCN(N2)C1=O | < 100 nM
* CC(C)C(=O)O[C@@H](C)[C@H]1/C=C/c2ccc3ccc(nc3c2)[C@@H](C)OC(=O)[C@@H]2CCCN(N2)C(=O)[C@H](C)NC(=O)[C@H](C(C)C)NC1=O | < 100 nM
* CC(C)[C@@H]1NC(=O)C(C)(C)/C=C/c2ccc3ccc(nc3c2)[C@@H](C)OC(=O)[C@@H]2CCCN(N2)C(=O)[C@H](CO)NC1=O | < 100 nM
* C#CC[C@@H]1NC(=O)C(C)(C)/C=C/c2cc3cc(ccc3cn2)[C@@H](C)OC(=O)[C@@H]2CCCN(N2)C(=O)[C@H](C)NC1=O | < 100 nM
* CC(C)[C@@H]1NC(=O)C2(/C=C/c3cc4cc(ccc4cn3)[C@@H](C)OC(=O)[C@@H]3CCCN(N3)C(=O)[C@H](C)NC1=O)CCOCC2 | < 100 nM
* CC(C)[C@@H]1NC(=O)C2(/C=C/c3ccc4ccc(nc4c3)[C@@H](C)OC(=O)[C@@H]3CCCN(N3)C(=O)[C@H](C)NC1=O)CCNCC2 | < 100 nM
* CC(C)[C@@H]1NC(=O)C(C)(C(C)(C)O)/C=C/c2ccc3ccc(nc3c2)[C@@H](C)OC(=O)[C@@H]2CCCN(N2)C(=O)[C@H](C)NC1=O (stereo partly shown) | < 100 nM
* CC(C)[C@@H]1NC(=O)CCc2ccc(cn2)-c2cccc(c2)[C@@H](C)OC(=O)[C@@H]2CCCN(N2)C(=O)[C@H](C)NC1=O | < 100 nM
* CC(C)[C@@H]1NC(=O)[C@]2(/C=C/c3ccc4ccc(nc4c3)[C@@H](C)OC(=O)[C@@H]3CCCN(N3)C(=O)[C@H](C)NC1=O)CC[C@@](C)(O)CC2 | < 100 nM
* CC(=O)N1CCC2(/C=C/c3ccc4ccc(nc4c3)[C@@H](C)OC(=O)[C@@H]3CCCN(N3)C(=O)[C@H](C)NC(=O)[C@H](C(C)C)NC2=O)CC1 | < 100 nM
